Target: T1, monkey CD22 protein (ACROBiosystems, catalog number SI2-R52Ha) (monkey, UniProt F6W485 20-688)
T1 construct: commercial protein; also called monkey CD22-ECD; monkey CD22-ECD-His
T1 sequence: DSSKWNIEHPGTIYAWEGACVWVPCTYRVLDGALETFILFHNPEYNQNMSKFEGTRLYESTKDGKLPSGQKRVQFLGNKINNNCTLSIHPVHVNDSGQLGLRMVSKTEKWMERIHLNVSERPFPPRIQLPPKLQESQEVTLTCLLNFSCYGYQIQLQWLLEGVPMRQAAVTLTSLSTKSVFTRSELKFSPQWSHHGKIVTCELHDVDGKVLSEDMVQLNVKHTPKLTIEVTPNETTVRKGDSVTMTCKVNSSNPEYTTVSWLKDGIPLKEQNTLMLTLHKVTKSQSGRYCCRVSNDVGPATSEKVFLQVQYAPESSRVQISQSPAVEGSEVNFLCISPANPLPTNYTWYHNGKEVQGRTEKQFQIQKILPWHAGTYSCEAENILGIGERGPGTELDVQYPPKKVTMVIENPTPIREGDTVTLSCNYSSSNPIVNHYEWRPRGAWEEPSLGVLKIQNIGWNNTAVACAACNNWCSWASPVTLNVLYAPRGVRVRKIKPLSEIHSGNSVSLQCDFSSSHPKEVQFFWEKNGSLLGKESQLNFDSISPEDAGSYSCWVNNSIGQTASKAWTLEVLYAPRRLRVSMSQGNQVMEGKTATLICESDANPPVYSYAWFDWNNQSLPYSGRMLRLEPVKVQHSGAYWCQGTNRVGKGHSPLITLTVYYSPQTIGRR
Test: ELISA, coated monkey CD22 protein, antibody 0.0001 nM
Experimental endpoint: OD450 (OD450)
The response must be a number in OD450 with no trailing unit.

Sample records with OD450:
Challenge: # return recorded OD450 for input F1.7.6 (antibody, human IgG1, kappa, V domains shown, human-murine chimeric IgG1 kappa; VL name legible) VH: EIQLQQSGPELVKPGTSVKVSCKASGYDFTRYNMYWVKQSHGKSLEWIGYIDPYNGDTRYNQKFKGKATLTVDKSSSTAYMHLNSLTSEDSAVYYCEAIYYDMEGYALDYWGQGTSVTVSS VL: DIVMSQSPSSLAVSVGEKVTMSCKSSQSLLYSNNQKNYLAWYQQKPGQSPKKLIYWASTRESGVPDRLTGSGSGTDFTLTISSVTAEDLAVYYCQQFYSYPWTFGGGTKLEIKR
Response given: 0.06

Challenge: Tell me OD450 reported for F1.105.11 (antibody, human IgG1, kappa, V domains shown, human-murine chimeric IgG1 kappa; VL name legible) VH: EVQLQQSGPVLVKPGASVKMSCKASGYTFSDYFMNWVKQSHGKSLEWIGIINSYSGGTSYNQKFKGKATLTVDKSSSTAYMELNSLTSEDSAVYYCARWMDYWGQGTSVTVSS VL: DVQITQSPSYLAASPGETITINCRTSESISKHLAWYQEKPGKTNKLLIYSGSTLQSGIPSRFSGSGSGTDFTLTISSLEPEDFAMYYCQQHNEYPWTFGGGTKLEIKR
Response given: 0.07

Lab note: next binder to report on.
Challenge: Given the binder F1.250.16 (antibody, human IgG1, kappa, V domains shown, human-murine chimeric IgG1 kappa; VL name legible) VH: QVQLQQSGAEQVKPGASVKMSCKASGYTFTTYPIEWMKQNHGESLDWIGNIHPYNDDTEYNEKFKGKATLTVEKSSNTVFLELSRLTSDDSAVYYCVRGDYYNSRYWYFDVWGTGTTVTVSS VL: DIVMTQSQKFMSTTVGDRVSITCKAGQNVRTAVAWYQQKPGQSPKLLIYSASTRYIGVPERFTGSGSGTDFTLTITNMQSEDLADYFCQQYSSFPLTFGTGTKLELKR , write its reported OD450.
Response given: 0.23
